# Test system: HepG 2.2.15 cells
# assayProcedure: Cytotoxicity in HepG 2.2.15 cells (cell morphology under microscope after 8 days, Reed&Muench)
# Assay type: cell-based
# measurementSetup: pathological change of cells after 8 days
testReadout: TD50 (µM)

compound	assayedSystem	modifier	number
CCOC(=O)C1=C(C)NC(c2csc(Cl)n2)=NC1c1ccc(F)cc1Cl (centres unmarked)	HepG 2.2.15 cells	=	7.17
CCOC(=O)C1=C(C)NC(c2nccn2C)=NC1c1ccc(F)cc1 (centres unmarked)	HepG 2.2.15 cells	=	281.14
CCOC(=O)C1=C(C)NC(c2c(F)cc(F)cc2F)=N[C@H]1c1ccc(F)cc1Cl	HepG 2.2.15 cells	=	117.23
COC(=O)C1=C(C)NC(c2c(F)cc(F)cc2F)=NC1c1ccc(F)cc1Cl (centres unmarked)	HepG 2.2.15 cells	>	30.30
CCOC(=O)C1=C(C)NC(c2cnc(N)s2)=NC1c1ccc(F)cc1Cl (centres unmarked)	HepG 2.2.15 cells	=	22.56
COC(=O)C1=C(C)NC(c2sc(C)nc2C)=NC1c1ccc(F)cc1Cl (centres unmarked)	HepG 2.2.15 cells	=	165.90
CCOC(=O)C1=C(C)NC(c2c(F)cccc2F)=NC1c1ccc(F)cc1Cl (centres unmarked)	HepG 2.2.15 cells	=	117.50
CCOC(=O)C1=C(C)NC(c2c(F)cc(F)cc2F)=NC1c1ccc(F)cc1Cl (centres unmarked)	HepG 2.2.15 cells	=	32.50
COC(=O)C1=C(C)NC(c2scnc2C)=NC1c1ccc(F)cc1Cl (centres unmarked)	HepG 2.2.15 cells	=	101.42
CCOC(=O)C1=C(C)NC(c2nccn2Cc2ccccc2)=NC1c1ccc(F)cc1 (centres unmarked)	HepG 2.2.15 cells	=	36.87
COC(=O)C1=C(C)NC(c2c(F)cccc2F)=NC1c1ccc(F)cc1Cl (centres unmarked)	HepG 2.2.15 cells	=	60.84
CCOC(=O)C1=C(C)NC(c2cnc(NC(C)=O)s2)=NC1c1ccc(F)cc1Cl (centres unmarked)	HepG 2.2.15 cells	=	76.43
CCOC(=O)C1=C(C)NC(c2cscn2)=NC1c1ccc(F)cc1Cl (centres unmarked)	HepG 2.2.15 cells	=	50.59
CCOC(=O)C1=C(C)NC(c2cncs2)=NC1c1ccc(F)cc1Cl (centres unmarked)	HepG 2.2.15 cells	>	32.90

----------
# melting point values compiled below

compound	melting point
COC(=O)C1=C(C)NC(c2sc(C)nc2C)=NC1c1ccc(F)cc1Cl (centres unmarked)	116 to 118 °C
COC(=O)C1=C(C)NC(c2csc(Cl)n2)=NC1c1ccc(F)cc1Cl (centres unmarked)	160 to 162 °C
CCOC(=O)C1=C(C)NC(c2cscn2)=NC1c1cccc(F)c1 (centres unmarked)	118 to 120 °C
CCOC(=O)C1=C(C)NC(c2cnc(N)s2)=NC1c1ccc(F)cc1Cl (centres unmarked)	132 to 135 °C
CCOC(=O)C1=C(C)NC(c2scnc2C)=NC1c1ccc(F)cc1Cl (centres unmarked)	134 to 139 °C
CCOC(=O)C1=C(C)NC(c2csc(C)n2)=NC1c1cccc(O)c1 (centres unmarked)	175 to 178 °C
CCOC(=O)C1=C(C)NC(c2cnc(NC(C)=O)s2)=NC1c1ccc(F)cc1Cl (centres unmarked)	> 250 °C
CCOC(=O)C1=C(C)NC(c2c(F)cccc2F)=NC1c1ccc(F)cc1Cl (centres unmarked)	163 to 165 °C
CCOC(=O)C1=C(C)N(C(C)=O)C(c2csc(C)n2)=NC1c1ccc(Cl)cc1 (centres unmarked)	169 to 171 °C
CCOC(=O)C1=C(C)NC(c2cscn2)=NC1c1ccc(F)cc1 (centres unmarked)	118 to 120 °C
CCOC(=O)C1=C(C)N(C(C)=O)C(c2csc(C)n2)=NC1c1cccc(OC)c1 (centres unmarked)	114 to 116 °C
CCOC(=O)C1=C(C)NC(c2csc(C)n2)=NC1c1cccc(Cl)c1 (centres unmarked)	143 to 144 °C
CCOC(=O)C1=C(C)NC(c2cscn2)=NC1c1ccccc1F (centres unmarked)	126 to 128 °C
CCOC(=O)C1=C(C)NC(c2csc(Cl)n2)=NC1c1ccc(F)cc1Cl (centres unmarked)	141 to 143 °C
CCOC(=O)C1=C(C)NC(c2nccn2C)=NC1c1ccccc1Cl (centres unmarked)	124 to 127 °C
CCOC(=O)C1=C(C)NC(c2cscn2)=NC1c1ccc(O)cc1 (centres unmarked)	213 to 216 °C
CCOC(=O)C1=C(C)NC(c2cscn2)=NC1c1cccc(OC)c1 (centres unmarked)	140 to 142 °C
CCOC(=O)C1=C(C)NC(c2cscn2)=NC1c1ccc(F)cc1Cl (centres unmarked)	140 to 142 °C
CCOC(=O)C1=C(C)N(C(C)=O)C(c2csc(C)n2)=NC1c1ccc(OC)cc1 (centres unmarked)	138 to 140 °C
CCOC(=O)C1=C(C)NC(c2cnc(C)s2)=NC1c1ccc(F)cc1Cl (centres unmarked)	107 to 111 °C
CCOC(=O)C1=C(C)N(C(C)=O)C(c2csc(C)n2)=NC1c1ccc(F)cc1 (centres unmarked)	140 to 142 °C
CCOC(=O)C1=C(C)N(C(C)=O)C(c2csc(C)n2)=NC1c1cccc(C)c1 (centres unmarked)	113 to 114 °C
CCOC(=O)C1=C(C)NC(c2csc(C)n2)=NC1c1ccc(F)cc1Cl (centres unmarked)	123 to 125 °C
CCOC(=O)C1=C(C)N(C(C)=O)C(c2csc(C)n2)=NC1c1cccc(F)c1 (centres unmarked)	127 to 130 °C
CCOC(=O)C1=C(C)NC(c2ncc[nH]2)=NC1c1ccccc1Cl (centres unmarked)	121 to 125 °C
COC(=O)C1=C(C)NC(c2scnc2C)=NC1c1ccc(F)cc1Cl (centres unmarked)	145 to 147 °C
CCOC(=O)C1=C(C)NC(c2csc(C)n2)=NC1c1ccc(O)cc1 (centres unmarked)	208 to 210 °C
CCOC(=O)C1=C(C)NC(c2nccn2Cc2ccccc2)=NC1c1ccc(F)cc1Cl (centres unmarked)	114 to 117 °C
CCOC(=O)C1=C(C)NC(c2nccn2C)=NC1c1ccc(F)cc1 (centres unmarked)	134 to 136 °C
CCOC(=O)C1=C(C)NC(c2csc(N)n2)=NC1c1ccc(F)cc1Cl (centres unmarked)	95 to 110 °C
CCOC(=O)C1=C(C)NC(c2cncs2)=NC1c1ccc(F)cc1Cl (centres unmarked)	121 to 125 °C
CCOC(=O)C1=C(C)N(C(C)=O)C(c2csc(C)n2)=NC1c1ccc(C)cc1 (centres unmarked)	187 to 188 °C
CCOC(=O)C1=C(C)NC(c2nccn2C)=NC1c1ccc(F)cc1Cl (centres unmarked)	166 to 167 °C
CCOC(=O)C1=C(C)NC(c2cnc(Cl)s2)=NC1c1ccc(F)cc1Cl (centres unmarked)	159 to 162 °C
CCOC(=O)C1=C(C)NC(c2cscn2)=NC1c1cccc(C)c1 (centres unmarked)	133 to 134 °C
CCOC(=O)C1=C(C)NC(c2ncsc2Cl)=NC1c1ccc(F)cc1Cl (centres unmarked)	149 to 152 °C
CCOC(=O)C1=C(C)NC(c2cscn2)=NC1c1cccc(Cl)c1 (centres unmarked)	105 to 108 °C
COC(=O)C1=C(C)NC(c2ncsc2Cl)=NC1c1ccc(F)cc1 (centres unmarked)	118 to 122 °C
COC(=O)C1=C(C)NC(c2c(F)cccc2F)=NC1c1ccc(F)cc1Cl (centres unmarked)	126 to 128 °C
CCOC(=O)C1=C(C)NC(c2cscn2)=NC1c1cccc(O)c1 (centres unmarked)	180 to 183 °C
COC(=O)C1=C(C)NC(c2cnc(Cl)s2)=NC1c1ccc(F)cc1Cl (centres unmarked)	> 230 °C

----------
molecule	melting point
CCOC(=O)C1=C(C)NC(c2nccn2Cc2ccccc2)=NC1c1ccc(F)cc1 (stereo not shown)	162 to 164 °C
CC1=C(C(=O)OC(C)C)C(c2ccc(F)cc2Cl)N=C(c2c(F)cccc2F)N1 (stereo not shown)	155 to 158 °C
CCOC(=O)C1=C(C)N(C(C)=O)C(c2cscn2)=NC1c1cccc(OC)c1 (stereo not shown)	130 to 131 °C
CCOC(=O)C1=C(C)NC(c2sc(C)nc2C)=NC1c1ccc(F)cc1Cl (stereo not shown)	117 to 119 °C
COC(=O)C1=C(C)NC(c2c(F)cc(F)cc2F)=NC1c1ccc(F)cc1Cl (stereo not shown)	112 to 114 °C
CCOC(=O)C1=C(C)N(C(C)=O)C(c2csc(C)n2)=NC1c1ccccc1 (stereo not shown)	140 to 142 °C
CCOC(=O)C1=C(C)NC(c2c(F)cc(F)cc2F)=NC1c1ccc(F)cc1Cl (stereo not shown)	184 to 186 °C
COC(=O)C1=C(C)NC(c2cnc(Cl)s2)=NC1c1ccc(F)cc1 (stereo not shown)	175 to 178 °C
COC(=O)C1=C(C)NC(c2ncsc2Cl)=NC1c1ccc(F)cc1Cl (stereo not shown)	98 to 100 °C
CCOC(=O)C1=C(C)NC(c2ncc[nH]2)=NC1c1ccc(F)cc1Cl (stereo not shown)	157 to 162 °C
